System: Avena fatua (AVEFA)
Test: Post-emergence herbicidal action against AVEFA
Assay type: in vivo
Conditions: 320 g/ha, visual rating about 3 weeks after treatment
RECORDED METRIC: Post-emergence action against AVEFA in % (%)
Numbers only, in %.

# count of solved cases: 3
>>> value_observed("COC(=O)C(C)OC(=O)C(C)Oc1nn(-c2ccccn2)c(-c2ccc(F)nc2)c1Br (stereo not shown)")
90
>>> value_observed("C[C@@H](Oc1nn(-c2ccccn2)c(-c2ccc(F)nc2)c1Br)C(=O)O")
80
>>> value_observed("C[C@@H](Oc1nn(-c2ccccn2)c(-c2cncnc2)c1Cl)C(=O)O")
90

Consider now this further molecule.
Report Post-emergence action against AVEFA in % for `CCOC(=O)CSc1nn(-c2ccccn2)c(-c2cncc(F)c2)c1C1CC1` please. 90

###

Tested on: Alopecurus myosuroides (ALOMY)
Assay: Post-emergence herbicidal action against ALOMY
Format: in vivo
Details: 80 g/ha, visual rating about 3 weeks after treatment vs untreated controls (100% = plants have died, 0% = like control plants)
Procedure: Seeds of monocotyledonous and dicotyledonous weeds and crop plants are placed in sandy loam in plastic or organic planting pots, covered with soil and cultivated in a greenhouse under controlled growth conditions. 2 to 3 weeks after sowing, the test plants are treated at the one-leaf stage. […]
RECORDED METRIC: Post-emergence action against ALOMY in % (%)
Answers are plain numbers, in %.

>>> value_observed("COC(=O)C(C)NC(=O)[C@@H](C)Oc1nn(-c2ccccn2)c(-c2ccc(F)nc2)c1Cl (stereo partly shown)")
90

// each listed compound needs a value for Post-emergence action against ALOMY in %
1. C[C@@H](Oc1nn(-c2ncccc2F)c(-c2ccc(F)nc2)c1C1CC1)C(=O)O
2. COC(=O)[C@H](C)COC(=O)COc1nn(-c2ccccn2)c(-c2cncc(F)c2)c1Cl
3. O=C(O)COc1nn(-c2ncccc2F)c(-c2ccnc(F)c2)c1Br

100
90
90

###

Tested on: Lolium rigidum (LOLRI)
Experiment: Post-emergence herbicidal action against LOLRI
Assay type: in vivo
Details: dosage 320 g/ha
RECORDED METRIC: Post-emergence action against LOLRI in % (%)
Give bare numbers, in %.

>>> value_observed("COC(=O)CCOC(=O)COc1nn(-c2cccc(C)n2)c(-c2ccc(F)nc2)c1Br [Example I-278]")
80

Give me Post-emergence action against LOLRI in % for each of these compounds, listed below.
1. COC(=O)C(C)NC(=O)[C@@H](C)Oc1nn(-c2ccccn2)c(-c2cncc(F)c2)c1Cl (stereo partly shown) [Example I-199]
2. COC(=O)COc1nn(-c2ncccc2F)c(-c2ccnc(F)c2)c1Br [Example I-130]
3. CC(C)OC(=O)COc1nn(-c2ncccc2F)c(-c2ccc(F)nc2)c1C1CC1 [Example I-328]
4. COC(=O)[C@H](C)COC(=O)COc1nn(-c2ccccn2)c(-c2cncc(F)c2)c1Br [Example I-195]
5. O=C(O)COc1nn(-c2ncccc2F)c(-c2cncc(F)c2)c1C1CC1 [Example I-175]
6. COC(=O)CCOC(=O)[C@@H](C)Oc1nn(-c2ccccn2)c(-c2ccc(F)nc2)c1Cl [Example I-340]
7. CCOC(=O)[C@@H](C)Oc1nn(-c2ncccc2F)c(-c2ccnc(F)c2)c1Br [Example I-133]

[90, 90, 90, 80, 80, 90, 90]

State the recorded Post-emergence action against LOLRI in % for every item in the following list.
1. CCOC(=O)[C@@H](C)Oc1nn(-c2ncccc2F)c(-c2cncc(F)c2)c1Br [Example I-227]
2. CCOC(=O)C(C)Oc1nn(-c2ccccn2)c(-c2ccc(F)nc2)c1Br (racemic) [Example I-58]
3. COC(=O)C(C)COC(=O)C(C)Oc1nn(-c2ccccn2)c(-c2ccc(F)nc2)c1Cl (stereo not shown) [Example I-291]
4. COC(=O)C(C)NC(=O)[C@@H](C)Oc1nn(-c2ccccn2)c(-c2ccc(F)nc2)c1Cl (stereo partly shown) [Example I-358]

1. 90
2. 80
3. 80
4. 90

I need Post-emergence action against LOLRI in % for every entry listed below, if you could help.
1. COC(=O)COc1nn(-c2nc(F)ccc2F)c(-c2cncc(F)c2)c1C1CC1 [Example I-164]
2. COC(=O)[C@@H](C)Oc1nn(-c2ncccc2F)c(-c2ccc(F)nc2)c1C(F)(F)F [Example I-331]
3. C[C@@H](Oc1nn(-c2ncccc2F)c(-c2ccnc(F)c2)c1Br)C(=O)O [Example I-140]
4. CCOC(=O)[C@@H](C)Oc1nn(-c2ncccc2F)c(-c2ccc(F)nc2)c1F [Example I-320]

[90, 90, 90, 90]

###

Test system: Glycine max (GLXMA)
Format: in vivo
Details: pre-emergence, 80 g/ha, crop plant compatibility, in comparison to untreated controls
RECORDED METRIC: Pre-emergence action against GLXMA in %

These solved cases illustrate the format of a correct answer.
>>> value_observed("C[C@@H](Oc1nn(-c2ncccc2F)c(-c2ccc(F)nc2)c1F)C(=O)O [Example I-306]")
"0%"
>>> value_observed("O=C(CSc1nn(-c2ccccn2)c(-c2cncc(F)c2)c1Br)NS(=O)(=O)c1ccccc1 [Example I-200]")
"20%"
>>> value_observed("COC(=O)[C@H](C)COC(=O)COc1nn(-c2ccnc(Cl)c2)c(-c2ccc(F)nc2)c1Br [III-17]")
"0%"
>>> value_observed("COC(=O)C=CC(C)NC(=O)COc1nn(-c2ccccn2)c(-c2ccc(F)nc2)c1Br (centres unmarked) [Example I-345]")
"0%"
>>> value_observed("COC(=O)C1CCCN(C(=O)COc2nn(-c3ccccn3)c(-c3ccc(F)nc3)c2Br)C1 (centres unmarked) [Example I-108]")
"0%"

Count: 3. Required value per item: Pre-emergence action against GLXMA in %.
1. CCOC(=O)COc1nn(-c2cccc(C)n2)c(-c2ccc(F)nc2)c1Br [Example I-312]
2. O=C(O)COc1nn(-c2ncccc2C(F)(F)F)c(-c2cncc(F)c2)c1Br [Example I-230]
3. COc1cccnc1-n1nc(OCC(=O)O)c(Cl)c1-c1ccc(F)nc1 [Example I-329]

1. 20%
2. 20%
3. 0%

###

Tested on: Echinochloa crus-galli (ECHCG)
Assay: Post-emergence herbicidal action against ECHCG
Type: in vivo
Conditions: dosage 320 g/ha
RECORDED METRIC: Post-emergence action against ECHCG in % (%)
Answers are plain numbers, in %.

Some solved entries appear below for comparison.
>>> value_observed("CCOC(=O)COc1nn(-c2ccnc(Cl)c2)c(-c2ccc(F)nc2)c1Br [III-24]")
100
>>> value_observed("CCOC(=O)[C@@H](C)Oc1nn(-c2ncccc2F)c(-c2ccc(F)nc2)c1C1CC1 [Example I-375]")
90
>>> value_observed("COC(=O)CCOC(=O)COc1nn(-c2ccccn2)c(-c2ccc(F)nc2)c1Cl [Example I-88]")
90
>>> value_observed("COC(=O)COc1nn(-c2nc(F)ccc2F)c(-c2cncc(F)c2)c1Cl [Example I-216]")
80
>>> value_observed("COC(=O)COc1nn(-c2cccnc2C)c(-c2cncc(F)c2)c1Cl [II-44]")
90
>>> value_observed("COC(=O)[C@@H](C)Oc1nn(-c2ccccn2)c(-c2cncc(F)c2)c1Cl [Example I-189]")
90

Quick batch: Post-emergence action against ECHCG in % for everything below.
1. O=C(O)COc1nn(-c2nc(F)ccc2F)c(-c2cncc(F)c2)c1C1CC1 [Example I-148]
2. CCOC(=O)CNC(=O)COc1nn(-c2ncccc2F)c(-c2ccc(OC)nc2)c1Br [Example I-48]
3. COC(=O)C(C)NC(=O)[C@@H](C)Oc1nn(-c2ccccn2)c(-c2ccc(F)nc2)c1Cl (some centres unmarked) [Example I-358]
4. COC(=O)[C@H](C)COC(=O)[C@@H](C)Oc1nn(-c2ccccn2)c(-c2ccc(F)nc2)c1Cl [Example I-275]
5. COC(=O)[C@@H](C)Oc1nn(-c2ncccc2F)c(-c2cncc(F)c2)c1Cl [Example I-146]
6. C[C@@H](Oc1nn(-c2ncccc2F)c(-c2ccc(F)nc2)c1I)C(=O)O [Example I-343]
7. C[C@@H](Oc1nn(-c2ccccn2)c(-c2cncc(F)c2)c1Cl)C(=O)O [Example I-218]
8. O=C(O)COc1nn(-c2ccccn2)c(-c2ccc(F)nc2)c1Cl [Example I-266]

1: 80; 2: 90; 3: 90; 4: 90; 5: 90; 6: 90; 7: 90; 8: 90

Please look at the items below and tell me Post-emergence action against ECHCG in % for each one, in order.
1. COC(=O)CCOC(=O)COc1nn(-c2ncccc2C(F)(F)F)c(-c2ccc(F)nc2)c1Br [Example I-381]
2. CCOC(=O)COc1nn(-c2ncccc2F)c(-c2ccc(F)nc2)c1F [Example I-354]

80
100

Request body: readout Post-emergence action against ECHCG in %, system Echinochloa crus-galli (ECHCG), query CCOC(=O)[C@@H](C)Oc1nn(-c2ncccc2Cl)c(-c2ccc(F)nc2)c1Br [Example I-27] . Return the value. 90
